# TESTED_TARGET: Cytochrome P450 2C19 (Homo sapiens)
# Sequence (P33261 whole entry): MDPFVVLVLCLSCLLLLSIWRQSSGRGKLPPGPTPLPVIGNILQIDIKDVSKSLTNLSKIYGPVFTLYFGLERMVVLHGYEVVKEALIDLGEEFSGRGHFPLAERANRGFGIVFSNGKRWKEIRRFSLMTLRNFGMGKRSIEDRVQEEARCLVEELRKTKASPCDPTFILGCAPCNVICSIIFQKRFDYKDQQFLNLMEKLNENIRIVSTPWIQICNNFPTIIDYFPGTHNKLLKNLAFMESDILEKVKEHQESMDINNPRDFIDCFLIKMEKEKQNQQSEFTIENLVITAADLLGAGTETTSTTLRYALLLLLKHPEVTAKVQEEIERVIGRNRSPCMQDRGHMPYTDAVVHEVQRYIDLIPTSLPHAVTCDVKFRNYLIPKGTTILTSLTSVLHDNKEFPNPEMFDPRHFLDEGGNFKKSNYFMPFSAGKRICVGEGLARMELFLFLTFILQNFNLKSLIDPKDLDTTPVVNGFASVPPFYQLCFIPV
Binary call on IC50 with cut-off 1000 nM: strictly below means 1.0, and equality or higher means 0.0.

>  <COMPOUND>
CC(=O)c1ccc(C2NCc3c(Cl)cccc3-n3cccc32)cc1 (stereo not drawn) [drawing 94]

>  <TESTED_TARGET>
Cytochrome P450 2C19 (Homo sapiens)

>  <CLASS_ASSIGNMENT>
0.0

$$$$
>  <COMPOUND>
CCc1ccc(C2=NCc3c(Cl)cccc3-n3cccc32)cc1 [drawing 92]

>  <TESTED_TARGET>
Cytochrome P450 2C19 (Homo sapiens)

>  <CLASS_ASSIGNMENT>
0.0

$$$$
>  <COMPOUND>
CC(=O)c1cccc(C2NCc3c(Cl)cccc3-n3cccc32)c1 (stereo not drawn) [drawing 99]

>  <TESTED_TARGET>
Cytochrome P450 2C19 (Homo sapiens)

>  <CLASS_ASSIGNMENT>
1.0

$$$$
>  <COMPOUND>
CC(=O)c1ccc(C2NCc3ccc(Cl)cc3-n3cccc32)cc1 (stereo not drawn) [drawing 101]

>  <TESTED_TARGET>
Cytochrome P450 2C19 (Homo sapiens)

>  <CLASS_ASSIGNMENT>
0.0

$$$$
>  <COMPOUND>
Br.CCc1ccc(C2NCc3c(Cl)cccc3-n3cccc32)cc1 (stereo not drawn)

>  <TESTED_TARGET>
Cytochrome P450 2C19 (Homo sapiens)

>  <CLASS_ASSIGNMENT>
1.0

$$$$
>  <COMPOUND>
Br.CC(=O)c1ccc(C2NCc3c(Cl)cccc3-n3cccc32)cc1 (stereo not drawn) [drawing 96]

>  <TESTED_TARGET>
Cytochrome P450 2C19 (Homo sapiens)

>  <CLASS_ASSIGNMENT>
0.0

$$$$
>  <COMPOUND>
CS(=O)(=O)c1ccc(C2=NCc3c(Cl)cccc3-n3cccc32)cc1 [drawing 93]

>  <TESTED_TARGET>
Cytochrome P450 2C19 (Homo sapiens)

>  <CLASS_ASSIGNMENT>
0.0

$$$$
>  <COMPOUND>
CC(O)c1ccc(C2NCc3c(Cl)cccc3-n3cccc32)cc1 (stereo not drawn) [drawing 97]

>  <TESTED_TARGET>
Cytochrome P450 2C19 (Homo sapiens)

>  <CLASS_ASSIGNMENT>
0.0

$$$$
>  <COMPOUND>
CC(=O)c1ccc(C2=NCc3c(Cl)cccc3-n3cccc32)cc1 [drawing 91]

>  <TESTED_TARGET>
Cytochrome P450 2C19 (Homo sapiens)

>  <CLASS_ASSIGNMENT>
0.0

$$$$
>  <COMPOUND>
CCc1ccc(C2NCc3ccc(Cl)cc3-n3cccc32)cc1 (stereo not drawn)

>  <TESTED_TARGET>
Cytochrome P450 2C19 (Homo sapiens)

>  <CLASS_ASSIGNMENT>
1.0

$$$$
>  <COMPOUND>
CCc1cccc(C2NCc3c(Cl)cccc3-n3cccc32)c1 (stereo not drawn)

>  <TESTED_TARGET>
Cytochrome P450 2C19 (Homo sapiens)

>  <CLASS_ASSIGNMENT>
0.0

$$$$

* * *

# TESTED_TARGET: CYP2C9 (Homo sapiens)
# Sequence (P11712 whole entry): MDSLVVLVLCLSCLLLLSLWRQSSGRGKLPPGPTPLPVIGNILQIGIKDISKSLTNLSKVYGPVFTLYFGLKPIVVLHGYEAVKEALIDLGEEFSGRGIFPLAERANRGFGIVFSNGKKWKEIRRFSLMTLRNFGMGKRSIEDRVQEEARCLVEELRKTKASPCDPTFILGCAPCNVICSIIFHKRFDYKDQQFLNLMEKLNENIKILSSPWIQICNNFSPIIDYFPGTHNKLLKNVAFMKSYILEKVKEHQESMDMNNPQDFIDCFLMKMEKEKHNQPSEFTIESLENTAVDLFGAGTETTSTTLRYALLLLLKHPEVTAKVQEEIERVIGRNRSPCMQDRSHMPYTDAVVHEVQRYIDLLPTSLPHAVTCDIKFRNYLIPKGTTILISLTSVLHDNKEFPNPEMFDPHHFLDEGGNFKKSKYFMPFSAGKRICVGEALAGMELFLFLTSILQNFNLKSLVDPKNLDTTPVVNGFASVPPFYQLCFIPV
# ASSAY_COMMENT: Cytochrome P450 inhibition, Protocol A, cDNA expressed proteins, fluorogenic substrate
# Assay type: in vitro ADME
# CONDITION_INFO: % inhibition at 10 μM; substrate MFC; cDNA expressed protein

>  <COMPOUND>
CC(=O)c1ccc(C2=NCc3c(F)cc(F)cc3-n3cccc32)cc1 [Compound 24]

>  <hCYP2C9_MFC_Pct_Inh>
54%

$$$$
>  <COMPOUND>
CS(=O)(=O)c1ccc(C2=NCc3c(Cl)cccc3-n3cccc32)cc1 [drawing 90]

>  <hCYP2C9_MFC_Pct_Inh>
48%

$$$$
>  <COMPOUND>
CC(=O)c1cc(C2=NCc3c(Cl)cccc3-n3cccc32)ccc1F [Compound 19]

>  <hCYP2C9_MFC_Pct_Inh>
60%

$$$$
>  <COMPOUND>
CC(=O)c1ccc(C2=NCc3c(Cl)cc(Cl)cc3-n3cccc32)cc1 [Compound 22]

>  <hCYP2C9_MFC_Pct_Inh>
85%

$$$$
>  <COMPOUND>
CC(=O)c1ccc(C2=NCc3c(ccc(Cl)c3Cl)-n3cccc32)cc1.Cl [Compound 21]

>  <hCYP2C9_MFC_Pct_Inh>
54%

$$$$
>  <COMPOUND>
CC(=O)c1cccc(C2=NCc3c(Cl)cccc3-n3cccc32)c1 [Compound 16]

>  <hCYP2C9_MFC_Pct_Inh>
84%

$$$$
>  <COMPOUND>
CC(=O)c1ccc(C2=NCc3cccc(Cl)c3-n3cccc32)cc1 [Compound 15]

>  <hCYP2C9_MFC_Pct_Inh>
60%

$$$$
>  <COMPOUND>
CC(=O)c1ccc(C2=NCc3cc(Cl)cc(Cl)c3-n3cccc32)cc1 [Compound 26]

>  <hCYP2C9_MFC_Pct_Inh>
69%

$$$$
>  <COMPOUND>
CCc1ccc(C2=NCc3ccc(Cl)cc3-n3cccc32)cc1

>  <hCYP2C9_MFC_Pct_Inh>
50%

$$$$

* * *

# TESTED_TARGET: CYP3A4 (Homo sapiens, UniProt P08684)
# Sequence (P08684 whole entry): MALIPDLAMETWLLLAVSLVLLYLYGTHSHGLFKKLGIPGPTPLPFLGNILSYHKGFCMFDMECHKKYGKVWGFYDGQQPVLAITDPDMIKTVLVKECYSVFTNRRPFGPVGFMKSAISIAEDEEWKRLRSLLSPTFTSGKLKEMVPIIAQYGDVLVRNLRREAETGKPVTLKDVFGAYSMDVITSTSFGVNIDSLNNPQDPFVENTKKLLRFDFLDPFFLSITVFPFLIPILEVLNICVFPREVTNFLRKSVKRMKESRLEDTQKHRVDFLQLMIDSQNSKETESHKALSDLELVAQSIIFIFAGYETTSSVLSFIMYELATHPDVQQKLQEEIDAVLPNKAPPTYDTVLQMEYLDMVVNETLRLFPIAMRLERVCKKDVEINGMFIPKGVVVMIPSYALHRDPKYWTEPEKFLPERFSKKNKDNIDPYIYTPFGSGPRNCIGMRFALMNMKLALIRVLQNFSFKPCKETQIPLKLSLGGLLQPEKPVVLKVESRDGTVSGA
# ASSAY_COMMENT: Cytochrome P450 inhibition, Protocol A, cDNA expressed proteins, fluorogenic substrates
# Assay type: in vitro ADME
# CONDITION_INFO: % inhibition at 10 μM; substrate DBF; cDNA expressed protein
# Procedure: All fluorogenic based assays were performed in Black Costar 96-well plates according to Crespi et al 1997 with minor modifications (Crespi C L, Miller V P & Penman B W (1997). Microtiter plate assays for inhibition of human, drug-metabolizing cytochromes P450. Anal. Biochem. Vol 248, 1898-1900). Assay conditions are outlined in Table 5a. […] For each cytochrome P450 batch Michealis-Menten kinetics were determined using 11 concentrations. […]
RECORDED_METRIC: hCYP3A4_DBF_Pct_Inh (%)

>  <COMPOUND>
CC(=O)c1ccc(C2=NCc3ccc(Cl)cc3-n3cccc32)cc1 [drawing 86]

>  <RECORDED_METRIC>
hCYP3A4_DBF_Pct_Inh

>  <UNIT_SPEC>
%

>  <VALUE_OBSERVED>
40

$$$$
>  <COMPOUND>
CC(=O)c1cc(C2=NCc3c(Cl)cc(Cl)cc3-n3cccc32)ccc1F

>  <RECORDED_METRIC>
hCYP3A4_DBF_Pct_Inh

>  <UNIT_SPEC>
%

>  <VALUE_OBSERVED>
40

$$$$
>  <COMPOUND>
CC(=O)c1cc(C2=NCc3c(Cl)cccc3-n3cccc32)ccc1F

>  <RECORDED_METRIC>
hCYP3A4_DBF_Pct_Inh

>  <UNIT_SPEC>
%

>  <VALUE_OBSERVED>
49

$$$$
>  <COMPOUND>
CC(=O)c1ccc(C2=NCc3c(ccc(Cl)c3Cl)-n3cccc32)cc1.Cl

>  <RECORDED_METRIC>
hCYP3A4_DBF_Pct_Inh

>  <UNIT_SPEC>
%

>  <VALUE_OBSERVED>
26

$$$$
>  <COMPOUND>
CCc1ccc(C2=NCc3c(Cl)cccc3-n3cccc32)cc1 [drawing 89]

>  <RECORDED_METRIC>
hCYP3A4_DBF_Pct_Inh

>  <UNIT_SPEC>
%

>  <VALUE_OBSERVED>
64

$$$$
>  <COMPOUND>
CC(=O)c1ccc(C2=NCc3cc(Cl)cc(Cl)c3-n3cccc32)cc1

>  <RECORDED_METRIC>
hCYP3A4_DBF_Pct_Inh

>  <UNIT_SPEC>
%

>  <VALUE_OBSERVED>
55

$$$$
>  <COMPOUND>
CC(=O)c1ccc(C2=NCc3c(Cl)cc(Cl)cc3-n3cccc32)cc1

>  <RECORDED_METRIC>
hCYP3A4_DBF_Pct_Inh

>  <UNIT_SPEC>
%

>  <VALUE_OBSERVED>
89

$$$$

* * *

Reported IC50 values for the following compounds.
# Tested on: Aspergillus fumigatus B42928
# ASSAY_COMMENT: Antifungal activity in vitro (resazurin susceptibility screen), Inf. E
# Assay type: cell-based
# CONDITION_INFO: Aspergillus fumigatus B42928; 27 °C, 48 hours, resa time 17 hours; read-out: Inf. E pIC50 (converted)
RECORDED_METRIC: IC50 (µM)

>  <COMPOUND>
CS(=O)(=O)c1cccc(C2=NCc3c(Cl)cc(Cl)cc3-n3cccc32)c1 [Compound 31]

>  <RECORDED_METRIC>
IC50

>  <UNIT_SPEC>
µM

>  <RESULT_QUALIFIER>
>

>  <VALUE_OBSERVED>
63.1

$$$$
>  <COMPOUND>
CS(=O)(=O)c1ccc(C2=NCc3c(Cl)cccc3-n3cccc32)cc1 [Compound 28]

>  <RECORDED_METRIC>
IC50

>  <UNIT_SPEC>
µM

>  <RESULT_QUALIFIER>
>

>  <VALUE_OBSERVED>
63.1

$$$$
>  <COMPOUND>
CC(=O)c1ccc(C2=NCc3c(Cl)ccc(Cl)c3-n3cccc32)cc1 [Compound 25]

>  <RECORDED_METRIC>
IC50

>  <UNIT_SPEC>
µM

>  <RESULT_QUALIFIER>
>

>  <VALUE_OBSERVED>
63.1

$$$$
>  <COMPOUND>
CC(=O)c1ccc(C2=NCc3c(Cl)cc(Cl)cc3-n3cccc32)cc1 [Compound 22]

>  <RECORDED_METRIC>
IC50

>  <UNIT_SPEC>
µM

>  <RESULT_QUALIFIER>
=

>  <VALUE_OBSERVED>
0.251

$$$$
>  <COMPOUND>
CC(=O)c1ccc(C2=NCc3cccc(Cl)c3-n3cccc32)cc1 [Compound 15]

>  <RECORDED_METRIC>
IC50

>  <UNIT_SPEC>
µM

>  <RESULT_QUALIFIER>
=

>  <VALUE_OBSERVED>
0.501

$$$$
>  <COMPOUND>
CC(=O)c1cc(C2NCc3c(Cl)cc(Cl)cc3-n3cccc32)ccc1F (centres unmarked) [Compound 13]

>  <RECORDED_METRIC>
IC50

>  <UNIT_SPEC>
µM

>  <RESULT_QUALIFIER>
>

>  <VALUE_OBSERVED>
63.1

$$$$
>  <COMPOUND>
CC(=O)c1cc(C2=NCc3c(Cl)cccc3-n3cccc32)ccc1F [Compound 19]

>  <RECORDED_METRIC>
IC50

>  <UNIT_SPEC>
µM

>  <RESULT_QUALIFIER>
=

>  <VALUE_OBSERVED>
2

$$$$
>  <COMPOUND>
CC(=O)c1cccc(C2=NCc3c(Cl)cccc3-n3cccc32)c1 [Compound 16]

>  <RECORDED_METRIC>
IC50

>  <UNIT_SPEC>
µM

>  <RESULT_QUALIFIER>
=

>  <VALUE_OBSERVED>
0.631

$$$$

Values compiled from patent US9040523B2.
